Hey, just so you know, these numbers are from patent US20160032014A1.

molecular target: T1, human PCSK9 (self-cleaved, mature, secreted PCSK9 comprising amino acids 31 to 692 of SEQ ID NO: 2) (human, UniProt Q8NBP7 31-692, biotinylated in the ELISAs); experiment: SPR pH 7.4;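 note: antibodies captured as ligand on the sensor surface, five analyte concentrations injected with buffer blanks, double-referenced data fit to a 1:1 binding model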
T1 construct: Limits 31-692 are stated for the immunogen; the assays only say human PCSK9; also called huPCSK9; rhu PCSK9

binder: SS-15065 (antibody, V domains shown, 31H4 His variant: LC 39(32), HC 132(106), parental(113H)) VH: EVQLVESGGGLVKPGGSLRLSCAASGFTFSSYSMNWVRQAPGKGLEWVSSISSSSSYISYADSVKGRFTISRDNAKNSLYLQMNSLRAEDTAVYFCARDYDFHSAHYDAFDVWGQGTMVTVSS VL: ESVLTQPPSVSGAPGQRVTISCTGSSSNIGAGHDVHWYQQLPGTAPKLLISGNSNRPSGVPDRFSGSKSGTSASLAITGLQAEDEADYYCQSYDSSLSGSVFGGGTKLTVLG
uom: s⁻¹
koff: 0.000337

binder: SS-15132 (antibody, V domains shown, 31H4 His variant: HC 68(58), 132(106), parental(113H)) VH: EVQLVESGGGLVKPGGSLRLSCAASGFTFSSYSMNWVRQAPGKGLEWVSSISSSSSYHSYADSVKGRFTISRDNAKNSLYLQMNSLRAEDTAVYFCARDYDFHSAHYDAFDVWGQGTMVTVSS VL: ESVLTQPPSVSGAPGQRVTISCTGSSSNIGAGYDVHWYQQLPGTAPKLLISGNSNRPSGVPDRFSGSKSGTSASLAITGLQAEDEADYYCQSYDSSLSGSVFGGGTKLTVLG
uom: s⁻¹
koff: 0.000338

binder: SS-15136 (antibody, V domains shown, 31H4 His variant: HC 70(60), 132(106), parental(113H)) VH: EVQLVESGGGLVKPGGSLRLSCAASGFTFSSYSMNWVRQAPGKGLEWVSSISSSSSYISHADSVKGRFTISRDNAKNSLYLQMNSLRAEDTAVYFCARDYDFHSAHYDAFDVWGQGTMVTVSS VL: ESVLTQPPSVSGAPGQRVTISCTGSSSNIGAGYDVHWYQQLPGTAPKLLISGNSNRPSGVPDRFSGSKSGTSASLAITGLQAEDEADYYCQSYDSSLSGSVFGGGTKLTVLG
uom: s⁻¹
koff: 0.000298

binder: SS-15139 (antibody, V domains shown, 31H4 His variant: HC 72(62), 132(106), parental(113H)) VH: EVQLVESGGGLVKPGGSLRLSCAASGFTFSSYSMNWVRQAPGKGLEWVSSISSSSSYISYAHSVKGRFTISRDNAKNSLYLQMNSLRAEDTAVYFCARDYDFHSAHYDAFDVWGQGTMVTVSS VL: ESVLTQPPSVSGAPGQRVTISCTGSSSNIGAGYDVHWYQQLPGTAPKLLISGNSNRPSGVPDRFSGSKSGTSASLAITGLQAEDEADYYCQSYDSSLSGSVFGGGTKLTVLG
uom: s⁻¹
koff: 0.000248
